Target: M1 muscarinic receptor (Homo sapiens)
Construct: expressed in transfected cells; host or cells: CHO (M1-CHO)
Sequence (P11229 whole entry): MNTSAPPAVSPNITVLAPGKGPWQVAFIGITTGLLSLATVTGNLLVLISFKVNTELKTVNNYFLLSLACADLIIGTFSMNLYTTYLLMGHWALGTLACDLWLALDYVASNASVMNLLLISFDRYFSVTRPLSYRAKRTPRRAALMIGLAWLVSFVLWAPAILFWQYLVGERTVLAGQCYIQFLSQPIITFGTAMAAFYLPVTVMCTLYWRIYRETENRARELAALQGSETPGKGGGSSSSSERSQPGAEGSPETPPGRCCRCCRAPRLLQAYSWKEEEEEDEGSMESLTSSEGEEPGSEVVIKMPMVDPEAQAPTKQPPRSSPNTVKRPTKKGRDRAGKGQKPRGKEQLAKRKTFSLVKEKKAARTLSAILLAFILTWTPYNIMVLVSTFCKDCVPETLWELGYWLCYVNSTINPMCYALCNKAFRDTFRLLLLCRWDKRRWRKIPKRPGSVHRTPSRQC
Experiment: Functional mobilization of intracellular calcium (FLIPR) in M1-CHO cells
Assay type: cell-based
Details: Table 4; 100% efficacy is the maximum response obtained with the Carbachol control
Known Emax of a selection of compounds

Take a look at these entries with their results.
CC(=O)N1CC2(CCN(C3CCN(c4nc5ccccc5s4)CC3)CC2)c2ccccc21 = < 25%
CCOC(=O)N1C2CCC1CC(N1CCC3(CC1)CN(C(C)=O)c1c(F)cc(F)cc13)C2 (stereo not drawn) = 25 to 100%
CN(C)C(=O)N1CC2(CCN(C3CCN(C(=O)CC4CCCC4=O)CC3)CC2)c2cc(F)ccc21 (stereo not drawn) = 25 to 100%
COc1ccccc1C(=O)N1CCC(N2CCC3(CC2)CN(C(=O)N(C)C)c2ccc(F)cc23)CC1 = 25 to 100%
CN(C)C(=O)N1CC2(CCN(C3CCN(C(=O)CC(F)(F)F)CC3)CC2)c2cc(F)ccc21 = 25 to 100%
CCOC(=O)N1C2CCC1CC(N1CCC3(C[C@H](NC(C)=O)c4cc(F)ccc43)C1)C2 (stereo partly drawn) = 25 to 100%
CN(C)C(=O)NC1CCC2(CCN(CC3CCCCC3)CC2)c2ccccc21 (stereo not drawn) = < 25%
CN(C)C(=O)N1CC2(CCN(C3CCN(C(=O)CCC#N)CC3)CC2)c2cc(F)ccc21 = 25 to 100%

# input Emax for "CC(=O)N1CC2(CCN(C3CCN(c4cncc(-c5ccccc5C)n4)CC3)CC2)c2ccccc21" ?
# output 25 to 100%

# input Any idea what its Emax is? The compound is "CCC#CCOC(=O)N1CC[C@@H](CN2CCC3(CC2)CN(C(=O)N(C)C)c2ccc(F)cc23)C1"
# output 25 to 100%

# input Name the recorded Emax for CCOC(=O)N1CCC(N2CCC3(CC2)CN(C2CCCCC2=O)c2ccc(F)cc23)CC1 (stereo not drawn) .
# output 25 to 100%
